The reported measurements were obtained from patent US11826466B2.

- measurement-description: Solubility of Bendamustine Hydrochloride in DMA-Water Mixture
- Type: physicochemical
- condition-label: organic solvent or mixture, thermodynamic from solid; DMA:Water 90:10; 5° C.
Where a name gives a salt, the structure may show the parent alone.
endpoint-name: solubility at 24 h (mg/mL)
Use mg/mL as the unit, but write only the number.

Which measured solubility at 24 h value corresponds to Cn1c(CCCC(=O)O)nc2cc(N(CCCl)CCCl)ccc21 [Bendamustine Hydrochloride hydrate] ? 201

====

- measurement-description: Solubility of Bendamustine Hydrochloride in DMA-Water Mixture
- Assay type: physicochemical
- condition-label: organic solvent or mixture, thermodynamic from solid; DMA; 5° C.
Counter-ions that a name gives are not always drawn.
endpoint-name: solubility at 24 h (mg/mL)
# unit: mg/mL | format: bare number

Bench note: what solubility at 24 h did Cn1c(CCCC(=O)O)nc2cc(N(CCCl)CCCl)ccc21 [Bendamustine Hydrochloride hydrate] show? 72

====

- measurement-description: Solubility of Bendamustine Hydrochloride in DMA-Water Mixture
- Assay type: physicochemical
- condition-label: organic solvent or mixture, thermodynamic from solid; DMA:Water 80:20; 5° C.
Where a name gives a salt, the structure may show the parent alone.
endpoint-name: solubility at 24 h (mg/mL)
Only the number, expressed in mg/mL, is required.

Return reported solubility at 24 h; argument: Cn1c(CCCC(=O)O)nc2cc(N(CCCl)CCCl)ccc21 [Bendamustine Hydrochloride hydrate] 169

====

- measurement-description: Solubility of Bendamustine Hydrochloride in DMA-Water Mixture
- Assay type: physicochemical
- condition-label: organic solvent or mixture, thermodynamic from solid; DMA:Water 60:40; 5° C.
Counter-ions that a name gives are not always drawn.
endpoint-name: solubility at 24 h (mg/mL)
Write down the numeric answer in mg/mL and omit the unit.

Would you mind telling me what solubility at 24 h value was observed for Cn1c(CCCC(=O)O)nc2cc(N(CCCl)CCCl)ccc21 [Bendamustine Hydrochloride hydrate] ? 67

====

- measurement-description: Solubility of Bendamustine Hydrochloride in DMA-Water Mixture
- Assay type: physicochemical
- condition-label: organic solvent or mixture, thermodynamic from solid; DMA:Water 97:3; 5° C.
Counter-ions that a name gives are not always drawn.
endpoint-name: solubility at 24 h

Look up solubility at 24 h for this molecule: Cn1c(CCCC(=O)O)nc2cc(N(CCCl)CCCl)ccc21 [Bendamustine Hydrochloride hydrate] 116 mg/mL

====

- measurement-description: Solubility of Bendamustine Hydrochloride in DMA
- condition-label: DMA, 2 °C, organic solvent or mixture
Structures can show the parent of a compound that is named as a salt.
endpoint-name: solubility

Using the record for Cn1c(CCCC(=O)O)nc2cc(N(CCCl)CCCl)ccc21 [Bendamustine Hydrochloride hydrate] , report its solubility. ~65 mg/mL
